Collected inhibition at 0.3 µM values appear next to each entry.
# target or system: Type I 5α-Reductase from Human Scalp (Homo sapiens, UniProt P18405)
# Construct: Scalp punch biopsies from graft recipient sites were obtained from human hair transplant procedures; from tissue; host or cells: human scalp punch biopsies (hair transplant graft recipient sites), homogenate, 100,000×g pellet
# Sequence (P18405 whole entry): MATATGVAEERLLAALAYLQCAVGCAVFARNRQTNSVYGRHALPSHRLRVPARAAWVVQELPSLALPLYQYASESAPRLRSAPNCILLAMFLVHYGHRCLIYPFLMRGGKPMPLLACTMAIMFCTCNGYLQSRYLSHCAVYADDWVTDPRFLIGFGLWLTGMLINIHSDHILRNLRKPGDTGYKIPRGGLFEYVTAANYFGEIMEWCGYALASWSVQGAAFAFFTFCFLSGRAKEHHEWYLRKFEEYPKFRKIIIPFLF
# test: Human Type I 5α-reductase assay (conversion of [3H]-testosterone to 5α-reduced metabolites)
# Assay type: biochemical
# measurement conditions: pH 7.5, 0.3 μM; 50 nM [3H]-testosterone, pH 7.5, 25°, 180 min; compared to control reaction mixtures; read-out: percent inhibition of Type I AR
Numbers only; they are read as %.

Past entries and their recorded results:
// fetch inhibition at 0.3 µM given entry `CN1C(=O)CC[C@]2(C)c3ccc(Sc4nnnn4-c4ccccc4)cc3CC[C@@H]12`
56

// fetch inhibition at 0.3 µM given entry `CN1C(=O)CC[C@]2(C)c3ccc(-c4ccc5c6c(cccc46)CC5)cc3CC[C@@H]12`
67

// fetch inhibition at 0.3 µM given entry `Cc1ccc(Sc2ccc3c(c2)CC[C@H]2N(C)C(=O)CC[C@]32C)cc1`
89

// fetch inhibition at 0.3 µM given entry `CN1C(=O)CC[C@]2(C)c3ccc(-c4nc5ccc(Cl)cc5s4)cc3CC[C@@H]12`
78

// fetch inhibition at 0.3 µM given entry `CN1C(=O)CC[C@]2(C)c3ccc(Oc4ccc5ccccc5n4)cc3CC[C@@H]12`
57

Others:
// fetch inhibition at 0.3 µM given entry `Cc1ccc(S(=O)(=O)n2ccc3cc(-c4ccc5c(c4)CC[C@H]4N(C)C(=O)CC[C@]54C)ccc32)cc1`
84

// fetch inhibition at 0.3 µM given entry `Cc1ccccc1Sc1ccc2c(c1)CC[C@H]1N(C)C(=O)CC[C@]21C`
75

// fetch inhibition at 0.3 µM given entry `CN1C(=O)CC[C@]2(C)c3ccc(-c4ccc(C(F)(F)F)cc4[N+](=O)[O-])cc3CC[C@@H]12`
97
